# fold change values compiled below
test_protocol: sensitizers of A549 cells to miR-34 induction, primary screen, imaging, A549 dox-inducible miR-34, nuclei and caspase counts (AID 1347080); also: test concentration not given here
protocol_conditions: A549 miR-34 inducible, Hoechst nuclei count, 48 h; hits give low values; cell number ratio, induced over uninduced
// print number alone

Answered cases to consult:
Data request: What measured fold change goes with `C=C1[C@@H](O)[C@]23C[C@@H]1[C@@H](O)C[C@H]2[C@@]12C4[C@@H]3C[C@@H]1[C@@](C)(CC[C@@H]2O)CN4CC` ?
Data returned: 0.894

Data request: What measured fold change goes with `CN1CCN(c2ccc3ccccc3n2)CC1` ?
Data returned: 0.923

Data request: What measured fold change goes with `C#C[C@@]1(O)C=C[C@H]2[C@@H]3CCC4=CC(=O)CC[C@@H]4[C@@H]3CC[C@@]21CC` ?
Data returned: 0.87

Data request: What measured fold change goes with CNCC(O)c1ccc(O)c(OC)c1 (stereo unspecified) ?
Data returned: 0.905

Data request: What measured fold change goes with NCCC(O)C(=O)N[C@@H]1C[C@H](N)[C@@H](OC2O[C@H](CN)[C@@H](O)[C@H](O)[C@H]2N)[C@H](OC2O[C@H](CO)C(O)[C@H]2O)[C@H]1O (stereo partly specified) ?
Data returned: 0.815

More entries:
Data request: What measured fold change goes with `C=C[C@]12CN(C)[C@@H]3[C@H]4COC(CC41)[C@]1(C(=O)Nc4ccccc41)[C@@H]32` ?
Data returned: 0.845

Data request: What measured fold change goes with C[N+]1(C)C2CC[C@H]1CC(OC(=O)C(CO)c1ccccc1)C2 (stereo partly specified) ?
Data returned: 0.955

Data request: What measured fold change goes with CC(C)NCC(O)c1ccccc1Cl (stereo unspecified) ?
Data returned: 0.961

Data request: What measured fold change goes with CC(C)[C@@]12OC1C1O[C@]13[C@]1(OC1C[C@@H]1C4=C(CC[C@@]13C)C(=O)OC4)C2O (stereo partly specified) ?
Data returned: 0.989
